Each recorded value in this set is attributed to ChEMBL document CHEMBL1150246.

- study-system: Protease (Human T-lymphotropic virus 1)
- Sequence (Q82323 whole entry): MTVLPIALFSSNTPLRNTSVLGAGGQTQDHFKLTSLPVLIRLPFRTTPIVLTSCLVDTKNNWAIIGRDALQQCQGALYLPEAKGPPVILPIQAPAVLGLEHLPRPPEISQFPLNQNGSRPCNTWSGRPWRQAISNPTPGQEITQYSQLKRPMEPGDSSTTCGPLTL
- test-name: Inhibition of HTLV1 protease1
IC50 reference
Respond with the bare value in nM.

Fill in reported IC50 for this entry: CCCC(=O)N[C@H](C(=O)N[C@H](C(=O)N[C@@H](Cc1ccccc1)[C@H](O)C(=O)N1CSC(C)(C)[C@H]1C(=O)NCC(C)C)C(C)(C)C)c1ccccc1 104

Retrieve IC50 measured for CC(C)CNC(=O)[C@H]1N(C(=O)[C@@H](O)[C@H](Cc2ccccc2)NC(=O)[C@@H](NC(=O)[C@@H](NC(=O)CCc2ccccc2)c2ccccc2)C(C)(C)C)CSC1(C)C and print it. 105

Hello, please tell me recorded IC50 for this one: CCCC(C)C(=O)N[C@H](C(=O)N[C@H](C(=O)N[C@@H](Cc1ccccc1)[C@H](O)C(=O)N1CSC(C)(C)[C@H]1C(=O)NCC(C)C)C(C)(C)C)c1ccccc1 (stereo partly drawn) 84.2

----------
Catalogue of compounds with associated pIC50
- study-system: Protease (Human T-lymphotropic virus 1)
- Sequence (Q82323 whole entry): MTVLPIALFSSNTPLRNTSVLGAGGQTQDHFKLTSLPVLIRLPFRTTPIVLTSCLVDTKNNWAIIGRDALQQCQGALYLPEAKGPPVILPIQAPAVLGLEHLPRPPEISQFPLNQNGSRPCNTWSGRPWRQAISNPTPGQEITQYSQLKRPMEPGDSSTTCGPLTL
- test-name: Inhibition of HTLV1 protease1
Starred links: 1 amine or outer side, 2 acyl side, 3 side chain; linkers in the order of their positions; H or OH if unused. Non-standard residues stand in square brackets, D forms with d. Residues, ends and D or L forms follow the SMILES beside them. X1 = O=C([C@@H](O)[C@H](Cc1ccccc1)N[*:1])[*:2]
// pIC50: -log10(molar conc.)

[[record]]
compound = "CSCC[C@H](NC(=O)[C@@H](NC(=O)[C@@H]1CCCN1C(=O)[C@@H](O)[C@H](Cc1ccccc1)NC(=O)[C@@H](NC(=O)[C@H](CCC(N)=O)NC(=O)[C@@H]1CCCN1)C(C)C)C(C)C)C(=O)N[C@@H](Cc1cnc[nH]1)C(=O)O (H-PQV[X1]PVMH-OH)"
recorded_value = 6.80

[[record]]
compound = "CCC(C)(C)C(=O)N[C@H](C(=O)N[C@H](C(=O)N[C@@H](Cc1ccccc1)[C@H](O)C(=O)N1CSC(C)(C)[C@H]1C(=O)NCC(C)C)C(C)(C)C)c1ccccc1"
recorded_value = 7.09

[[record]]
compound = "CC(C)CCC(=O)N[C@H](C(=O)N[C@H](C(=O)N[C@@H](Cc1ccccc1)[C@H](O)C(=O)N1CSC(C)(C)[C@H]1C(=O)NCC(C)C)C(C)(C)C)c1ccccc1"
recorded_value = 7.02


Then this compound:
Assign pIC50 to the following record: CCC(C)CC(=O)N[C@H](C(=O)N[C@H](C(=O)N[C@@H](Cc1ccccc1)[C@H](O)C(=O)N1CSC(C)(C)[C@H]1C(=O)NCC(C)C)C(C)(C)C)c1ccccc1 (some centres undefined) 7.05

----------
- study-system: Protease (Human T-lymphotropic virus 1)
- Sequence (Q82323 whole entry): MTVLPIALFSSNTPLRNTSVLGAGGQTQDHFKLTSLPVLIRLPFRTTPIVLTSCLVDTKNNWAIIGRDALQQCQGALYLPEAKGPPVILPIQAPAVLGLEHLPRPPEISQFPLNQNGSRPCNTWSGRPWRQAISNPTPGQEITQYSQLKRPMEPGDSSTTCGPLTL
- test-name: Inhibition of HTLV1 protease1
experimental-endpoint: IC50 (nM)
Could you give me the number in nM? Just the number is fine.

[[record]]
smiles_str = "CCC(=O)N[C@H](C(=O)N[C@H](C(=O)N[C@@H](Cc1ccccc1)[C@H](O)C(=O)N1CSC(C)(C)[C@H]1C(=O)NCC(C)C)C(C)(C)C)c1ccccc1"
study_system = "Protease (Human T-lymphotropic virus 1)"
experimental_endpoint = "IC50"
unit_symbol = "nM"
recorded_value = 105


# return recorded IC50 for input CCCCC(=O)N[C@H](C(=O)N[C@H](C(=O)N[C@@H](Cc1ccccc1)[C@H](O)C(=O)N1CSC(C)(C)[C@H]1C(=O)NCC(C)C)C(C)(C)C)c1ccccc1 92

Please indicate IC50 recorded for CC(C)CNC(=O)[C@H]1N(C(=O)[C@@H](O)[C@H](Cc2ccccc2)NC(=O)[C@@H](NC(=O)[C@@H](NC(=O)C(C)(C)C)c2ccccc2)C(C)(C)C)CSC1(C)C 82.8

----------
- System: Human immunodeficiency virus
- test-name: Inhibition of HIV protease at 50 nM
The entries below come with measured inhibition values attached.

Below, 2 molecules whose answers are already recorded.
[[record]]
smiles_str = "CC(C)CCC(=O)N[C@H](C(=O)N[C@H](C(=O)N[C@@H](Cc1ccccc1)[C@H](O)C(=O)N1CSC(C)(C)[C@H]1C(=O)NCC(C)C)C(C)(C)C)c1ccccc1"
experimental_endpoint = "inhibition"
recorded_value = "> 99%"

[[record]]
smiles_str = "CC(C)CNC(=O)[C@H]1N(C(=O)[C@@H](O)[C@H](Cc2ccccc2)NC(=O)[C@@H](NC(=O)[C@@H](NC(=O)C2CC2)c2ccccc2)C(C)(C)C)CSC1(C)C"
experimental_endpoint = "inhibition"
recorded_value = "> 99%"


Here is another molecule to look at.
Give the reported inhibition for this molecule. CC(C)CNC(=O)[C@H]1N(C(=O)[C@@H](O)[C@H](Cc2ccccc2)NC(=O)[C@@H](NC(=O)[C@@H](NC(=O)CC(C)C)c2ccccc2)C(C)(C)C)CSC1(C)C > 99%

----------
- System: Human immunodeficiency virus
- test-name: Inhibition of HIV protease at 50 nM
Recorded measurements of inhibition, one per entry

For orientation, consider the following solved cases.
[[record]]
molecule = "CC(C)CNC(=O)[C@H]1N(C(=O)[C@@H](O)[C@H](Cc2ccccc2)NC(=O)[C@@H](NC(=O)[C@@H](NC(=O)C2CCCCC2)c2ccccc2)C(C)(C)C)CSC1(C)C"
recorded_value = "> 99%"

[[record]]
molecule = "CCCC(C)C(=O)N[C@H](C(=O)N[C@H](C(=O)N[C@@H](Cc1ccccc1)[C@H](O)C(=O)N1CSC(C)(C)[C@H]1C(=O)NCC(C)C)C(C)(C)C)c1ccccc1 (stereo partly drawn)"
recorded_value = "> 99%"


# ---- query molecule ----
Given CCCC(=O)N[C@H](C(=O)N[C@H](C(=O)N[C@@H](Cc1ccccc1)[C@H](O)C(=O)N1CSC(C)(C)[C@H]1C(=O)NCC(C)C)C(C)(C)C)c1ccccc1 , respond with its inhibition. > 99%

----------
- study-system: Protease (Human T-lymphotropic virus 1, UniProt Q82323)
- Sequence (Q82323 whole entry): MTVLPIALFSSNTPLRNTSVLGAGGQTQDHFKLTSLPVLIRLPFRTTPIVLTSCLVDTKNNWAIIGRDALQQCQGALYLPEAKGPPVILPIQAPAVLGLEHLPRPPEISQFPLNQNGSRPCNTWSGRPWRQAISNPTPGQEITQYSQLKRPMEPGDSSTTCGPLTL
- test-name: Inhibition of HTLV1 protease1
Entries and their IC50
Give the quantity in nM, number only.

[[record]]
smiles_str = "CC(C)CNC(=O)[C@H]1N(C(=O)[C@@H](O)[C@H](Cc2ccccc2)NC(=O)[C@@H](NC(=O)[C@@H](N)c2ccccc2)C(C)(C)C)CSC1(C)C"
study_system = "Protease (Human T-lymphotropic virus 1, UniProt Q82323)"
experimental_endpoint = "IC50"
unit_symbol = "nM"
recorded_value = 332


Respond only with IC50 recorded for CC(C)CNC(=O)[C@H]1N(C(=O)[C@@H](O)[C@H](Cc2ccccc2)NC(=O)[C@@H](NC(=O)[C@@H](NC(=O)c2ccccc2)c2ccccc2)C(C)(C)C)CSC1(C)C 79.2

For the molecule CC(C)CNC(=O)[C@H]1N(C(=O)[C@@H](O)[C@H](Cc2ccccc2)NC(=O)[C@@H](NC(=O)[C@@H](NC(=O)C2CC2)c2ccccc2)C(C)(C)C)CSC1(C)C , give its measured IC50 value. 96.9

----------
# pIC50 per record follows
- study-system: Protease (Human T-lymphotropic virus 1)
- Sequence (Q82323 whole entry): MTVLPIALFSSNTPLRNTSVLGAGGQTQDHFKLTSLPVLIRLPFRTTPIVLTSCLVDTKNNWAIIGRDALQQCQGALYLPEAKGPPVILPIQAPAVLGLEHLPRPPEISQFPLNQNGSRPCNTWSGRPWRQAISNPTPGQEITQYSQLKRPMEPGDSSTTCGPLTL
- test-name: Inhibition of HTLV1 protease1
To interpret pIC50, take it as minus log10 of a concentration measured in moles per litre.

[[record]]
smiles_str = "CC(C)CNC(=O)[C@H]1N(C(=O)[C@@H](O)[C@H](Cc2ccccc2)NC(=O)[C@@H](NC(=O)[C@@H](NC(=O)CC(C)(C)C)c2ccccc2)C(C)(C)C)CSC1(C)C"
experimental_endpoint = "pIC50"
recorded_value = 7.08

[[record]]
smiles_str = "CC(=O)N[C@H](C(=O)N[C@H](C(=O)N[C@@H](Cc1ccccc1)[C@H](O)C(=O)N1CSC(C)(C)[C@H]1C(=O)NCC(C)C)C(C)(C)C)c1ccccc1"
experimental_endpoint = "pIC50"
recorded_value = 6.97

[[record]]
smiles_str = "CC(C)CNC(=O)[C@H]1N(C(=O)[C@@H](O)[C@H](Cc2ccccc2)NC(=O)[C@@H](NC(=O)[C@@H](NC(=O)C(C)C)c2ccccc2)C(C)(C)C)CSC1(C)C"
experimental_endpoint = "pIC50"
recorded_value = 7.03


For CC(C)CNC(=O)[C@H]1N(C(=O)[C@@H](O)[C@H](Cc2ccccc2)NC(=O)[C@@H](NC(=O)[C@@H](NC(=O)CC(C)C)c2ccccc2)C(C)(C)C)CSC1(C)C , write its pIC50. 6.99

Specify measured pIC50 for CC(C)CNC(=O)[C@H]1N(C(=O)[C@@H](O)[C@H](Cc2ccccc2)NC(=O)[C@@H](NC(=O)[C@@H](NC(=O)C2CCCCC2)c2ccccc2)C(C)(C)C)CSC1(C)C . 7.01
